assay: Solubility in simulated intestinal fluid at pH 6.8; assay type: physicochemical

{"columns": ["cpd_smiles", "units_text", "qualifier_operator", "solubility"],
 "data": [
  ["Cc1cccc(C)c1-n1c(=O)c2cnc(Nc3ccc(N4CCN(C)CC4)cc3)nc2n2c3ccccc3nc12", "µg/mL", "=", 153],
  ["COc1cc(Nc2ncc3c(=O)n(-c4c(C)cccc4C)c4nc5ccccc5n4c3n2)cc(OC)c1OCCN1CCOCC1", "µg/mL", "=", 18],
  ["COc1cc(Nc2ncc3c(=O)n(-c4c(C)cccc4C)c4nc5ccccc5n4c3n2)ccc1N1CCN(C)CC1", "µg/mL", ">", 200],
  ["Cc1cccc(C)c1-n1c(=O)c2cnc(Nc3ccc(OCCCN(C)C)cc3)nc2n2c3ccccc3nc12", "µg/mL", "=", 155],
  ["COc1cc(Nc2ncc3c(=O)n(-c4c(C)cccc4C)c4nc5ccccc5n4c3n2)cc(OC)c1OCCN1CCN(C)CC1", "µg/mL", ">", 200],
  ["COc1cc(Nc2ncc3c(=O)n(-c4c(C)cccc4C)c4nc5ccccc5n4c3n2)ccc1OCCCN1CCN(C)CC1", "µg/mL", ">", 200],
  ["Cc1cccc(C)c1-n1c(=O)c2cnc(Nc3ccc(OCCCN4CCCCC4)cc3)nc2n2c3ccccc3nc12", "µg/mL", "=", 101],
  ["COc1cc(Nc2ncc3c(=O)n(-c4c(C)cccc4C)c4nc5ccccc5n4c3n2)cc(OC)c1OC", "µg/mL", "=", 15]
]}
